tested.target: T1, Y. pestis YscF protein (Yersinia pestis KIM5, UniProt O68691 1-87)
T1 construct: also called YscF antigen
T1 sequence: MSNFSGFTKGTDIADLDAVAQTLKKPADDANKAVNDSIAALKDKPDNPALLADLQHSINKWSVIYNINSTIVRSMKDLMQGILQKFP
assay.overview: ELISA of periplasmic extract on YscF antigen and on blank wells, OD405

binder	binding result
3yscf15 (VHH) VHH: QVQLQESGGGLVQAGGSLRLSCAVSGRTFSRYAMGWFRQAPGKEREFVAAISWSGSSTYYADSVKGRFTISRDHAKNVMYLQMNGLKPEDTGVYVCARPAYGLRPPYNYRGQGTQVTVSS	binds
3yscf140 (VHH) VHH: QVQLQESGGGLVQAGGSLRLACAASGETVDDLAIGWFRQAPGKEREEISCISGSDGSTYYADSLSGRFTISRDNVKNTVYLQMNSLKLEDTAVYYCYAEIYDRRWYRNDYWGQGTQVTVSS	binds
3yscf24 (VHH) VHH: QVQLQESGGGLVQAGGSLKLSCTASQRTFSRYSLGWFRQAPGEERVFVAATTWSGISSDYADSVKGRFTISRDNAKNTGYLQMNNLKPEDTGVYYCAAGRSSWFAPWLTPYEYDYWGRGTQVTVSS	binds
